# target-system: UniProt:P32238
# Sequence (P32238 whole entry): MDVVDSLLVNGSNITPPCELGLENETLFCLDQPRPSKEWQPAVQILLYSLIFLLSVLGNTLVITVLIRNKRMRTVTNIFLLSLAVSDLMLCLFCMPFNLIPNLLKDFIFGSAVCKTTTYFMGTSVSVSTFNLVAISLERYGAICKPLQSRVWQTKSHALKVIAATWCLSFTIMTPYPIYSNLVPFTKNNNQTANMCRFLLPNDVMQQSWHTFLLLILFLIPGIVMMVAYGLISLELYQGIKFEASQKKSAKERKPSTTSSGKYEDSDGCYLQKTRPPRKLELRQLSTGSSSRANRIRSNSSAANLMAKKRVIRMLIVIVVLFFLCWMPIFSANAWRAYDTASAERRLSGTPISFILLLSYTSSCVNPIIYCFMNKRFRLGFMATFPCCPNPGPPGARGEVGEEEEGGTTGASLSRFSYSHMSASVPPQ
readout-type: AC50

COc1cc(C(C)=O)ccc1OCCCN1CCC(c2noc3cc(F)ccc23)CC1 ... > 30 µM
CC(C)Cc1ccc([C@H](C)C(=O)O)cc1 ... > 30 µM
CC(C)(Oc1ccc(CCNC(=O)c2ccc(Cl)cc2)cc1)C(=O)O [BEZAFIBRATE] ... > 10 µM
NC(=O)NC(=O)Cc1ccccc1 [PHENACEMIDE] ... > 10 µM
Cc1ccc(C)c(OCCCC(C)(C)C(=O)O)c1 ... > 30 µM
S=P(N1CC1)(N1CC1)N1CC1 ... > 30 µM
O=C(O)CCNC(=O)c1ccc(/N=N/c2ccc(O)c(C(=O)O)c2)cc1 [BALSALAZIDE] ... > 30 µM
CC(C)(C)NCC(O)c1ccccc1Cl (stereo not given) ... > 30 µM

Q) Hello, I am looking for reported AC50 with UniProt:P32238 for COc1cc(N)c(Cl)cc1C(=O)NC1CCN(CCCOc2ccc(F)cc2)CC1OC (stereo not given) [CISAPRIDE] . Could you help?
A) > 30 µM

Q) Hello, I am looking for reported AC50 with UniProt:P32238 for O=c1c(O)c(-c2ccc(O)c(O)c2)oc2cc(O)cc(O)c12 . Could you help?
A) > 30 µM

###

# AC50 annotations
# target-system: Glucocorticoid receptor (Homo sapiens); note: assay procedure not described here
# Sequence (P04150 whole entry): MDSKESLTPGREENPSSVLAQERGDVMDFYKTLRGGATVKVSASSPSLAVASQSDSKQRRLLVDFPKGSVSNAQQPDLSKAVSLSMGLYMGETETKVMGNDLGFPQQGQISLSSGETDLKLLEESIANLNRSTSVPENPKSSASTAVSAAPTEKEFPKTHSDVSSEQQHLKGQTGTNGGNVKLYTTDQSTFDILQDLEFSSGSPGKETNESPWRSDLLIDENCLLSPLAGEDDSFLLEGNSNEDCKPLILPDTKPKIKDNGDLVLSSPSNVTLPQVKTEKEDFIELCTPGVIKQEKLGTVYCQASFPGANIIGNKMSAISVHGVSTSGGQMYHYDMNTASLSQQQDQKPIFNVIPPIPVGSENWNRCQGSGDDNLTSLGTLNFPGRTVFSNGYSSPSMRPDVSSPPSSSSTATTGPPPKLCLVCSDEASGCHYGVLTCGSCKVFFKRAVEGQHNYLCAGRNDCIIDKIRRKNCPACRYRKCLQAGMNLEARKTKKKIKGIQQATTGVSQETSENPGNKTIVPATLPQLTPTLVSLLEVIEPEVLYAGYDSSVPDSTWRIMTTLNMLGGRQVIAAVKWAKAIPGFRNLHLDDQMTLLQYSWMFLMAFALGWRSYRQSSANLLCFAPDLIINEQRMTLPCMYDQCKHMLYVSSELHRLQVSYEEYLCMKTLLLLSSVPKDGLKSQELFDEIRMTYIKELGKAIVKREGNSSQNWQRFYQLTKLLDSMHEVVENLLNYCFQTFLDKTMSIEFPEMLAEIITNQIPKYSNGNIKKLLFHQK
# Format: functional

Cc1onc(-c2c(F)cccc2Cl)c1C(=O)N[C@@H]1C(=O)N2[C@@H]1SC(C)(C)[C@@H]2C(=O)O ... > 30 µM
CC(C)Cc1ccc([C@H](C)C(=O)O)cc1 ... > 30 µM
COc1cc(C(=O)NS(=O)(=O)c2ccccc2C)ccc1Cc1cn(C)c2ccc(NC(=O)OC3CCCC3)cc12 ... > 30 µM

Q) Hello, I am looking for reported AC50 with Glucocorticoid receptor (Homo sapiens) for COc1cc(C(C)=O)ccc1OCCCN1CCC(c2noc3cc(F)ccc23)CC1 . Could you help?
A) > 30 µM

Q) Hello, I am looking for reported AC50 with Glucocorticoid receptor (Homo sapiens) for CC(C)(O/N=C(\C(=O)N[C@@H]1C(=O)N2C(C(=O)[O-])=C(C[n+]3ccccc3)CS[C@H]12)c1csc(N)n1)C(=O)O . Could you help?
A) > 300 µM

Q) Hello, I am looking for reported AC50 with Glucocorticoid receptor (Homo sapiens) for C[C@]12C=CC(=O)C=C1CC[C@H]1[C@@H]3C[C@@H](O)[C@](O)(C(=O)CO)[C@@]3(C)C[C@H](O)[C@@]12F . Could you help?
A) 1.2 µM

Q) Hello, I am looking for reported AC50 with Glucocorticoid receptor (Homo sapiens) for Clc1ccc(Cn2c(CN3CCCC3)nc3ccccc32)cc1 . Could you help?
A) > 30 µM

Q) Hello, I am looking for reported AC50 with Glucocorticoid receptor (Homo sapiens) for CCOc1cc([C@@H](CS(C)(=O)=O)N2C(=O)c3cccc(NC(C)=O)c3C2=O)ccc1OC . Could you help?
A) > 30 µM

Q) Hello, I am looking for reported AC50 with Glucocorticoid receptor (Homo sapiens) for S=P(N1CC1)(N1CC1)N1CC1 . Could you help?
A) > 30 µM

Q) Hello, I am looking for reported AC50 with Glucocorticoid receptor (Homo sapiens) for CCOc1nc2cccc(C(=O)O)c2n1Cc1ccc(-c2ccccc2-c2nnn[nH]2)cc1 . Could you help?
A) > 30 µM

Q) Hello, I am looking for reported AC50 with Glucocorticoid receptor (Homo sapiens) for CCCc1nc2c(C)cc(-c3nc4ccccc4n3C)cc2n1Cc1ccc(-c2ccccc2C(=O)O)cc1 . Could you help?
A) > 30 µM

###

# target-system: Voltage-gated inwardly rectifying potassium channel KCNH2 (Homo sapiens); note: assay procedure not described here
# Sequence (Q12809 whole entry): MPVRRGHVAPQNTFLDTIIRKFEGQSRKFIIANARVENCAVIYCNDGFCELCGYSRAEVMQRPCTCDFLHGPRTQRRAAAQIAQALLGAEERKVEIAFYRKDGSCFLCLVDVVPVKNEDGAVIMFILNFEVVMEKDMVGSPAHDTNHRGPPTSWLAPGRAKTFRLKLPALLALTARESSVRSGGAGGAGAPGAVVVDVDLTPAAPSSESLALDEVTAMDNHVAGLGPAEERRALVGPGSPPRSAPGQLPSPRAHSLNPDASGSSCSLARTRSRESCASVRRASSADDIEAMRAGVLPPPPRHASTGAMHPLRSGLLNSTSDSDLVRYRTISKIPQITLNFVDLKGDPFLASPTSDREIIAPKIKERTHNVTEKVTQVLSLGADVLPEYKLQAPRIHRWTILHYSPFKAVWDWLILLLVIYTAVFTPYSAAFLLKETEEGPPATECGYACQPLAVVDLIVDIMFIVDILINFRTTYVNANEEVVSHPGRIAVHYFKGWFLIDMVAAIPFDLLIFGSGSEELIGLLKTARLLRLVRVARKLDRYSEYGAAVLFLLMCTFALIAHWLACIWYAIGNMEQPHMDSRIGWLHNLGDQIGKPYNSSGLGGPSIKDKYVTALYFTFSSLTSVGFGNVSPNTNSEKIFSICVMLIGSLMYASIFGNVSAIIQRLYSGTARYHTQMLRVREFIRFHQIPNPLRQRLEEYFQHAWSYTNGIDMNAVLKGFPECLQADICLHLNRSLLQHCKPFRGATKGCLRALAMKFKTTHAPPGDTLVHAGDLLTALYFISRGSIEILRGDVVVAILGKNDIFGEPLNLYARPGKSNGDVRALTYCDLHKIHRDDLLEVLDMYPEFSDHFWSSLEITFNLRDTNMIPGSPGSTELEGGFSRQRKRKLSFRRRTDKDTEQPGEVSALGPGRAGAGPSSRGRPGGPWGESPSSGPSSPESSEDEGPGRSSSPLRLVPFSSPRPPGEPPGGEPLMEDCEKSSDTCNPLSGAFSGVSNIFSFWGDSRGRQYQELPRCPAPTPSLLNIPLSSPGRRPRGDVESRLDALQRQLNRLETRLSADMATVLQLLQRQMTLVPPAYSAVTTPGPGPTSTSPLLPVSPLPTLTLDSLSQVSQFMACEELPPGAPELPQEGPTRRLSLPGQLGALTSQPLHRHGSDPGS
# Type: functional
readout-type: AC50

Q) Hello, I am looking for reported AC50 with Voltage-gated inwardly rectifying potassium channel KCNH2 (Homo sapiens) for NC[C@H]1CC[C@H](C(=O)Oc2ccc(CCC(=O)O)cc2)CC1 [CETRAXATE] . Could you help?
A) > 30 µM

Q) Hello, I am looking for reported AC50 with Voltage-gated inwardly rectifying potassium channel KCNH2 (Homo sapiens) for CCNC(=O)/C=C(C)/C=C/C=C(C)/C=C/c1c(C)cc(OC)c(C)c1C [MOTRETINIDE] . Could you help?
A) 5.7 µM

Q) Hello, I am looking for reported AC50 with Voltage-gated inwardly rectifying potassium channel KCNH2 (Homo sapiens) for O=C(c1cc(Cc2n[nH]c(=O)c3ccccc23)ccc1F)N1CCN(C(=O)C2CC2)CC1 [OLAPARIB] . Could you help?
A) > 30 µM

###

# AC50 annotations
# target-system: 5-hydroxytryptamine receptor 3A (Homo sapiens); note: assay procedure not described here
# Sequence (P46098 whole entry): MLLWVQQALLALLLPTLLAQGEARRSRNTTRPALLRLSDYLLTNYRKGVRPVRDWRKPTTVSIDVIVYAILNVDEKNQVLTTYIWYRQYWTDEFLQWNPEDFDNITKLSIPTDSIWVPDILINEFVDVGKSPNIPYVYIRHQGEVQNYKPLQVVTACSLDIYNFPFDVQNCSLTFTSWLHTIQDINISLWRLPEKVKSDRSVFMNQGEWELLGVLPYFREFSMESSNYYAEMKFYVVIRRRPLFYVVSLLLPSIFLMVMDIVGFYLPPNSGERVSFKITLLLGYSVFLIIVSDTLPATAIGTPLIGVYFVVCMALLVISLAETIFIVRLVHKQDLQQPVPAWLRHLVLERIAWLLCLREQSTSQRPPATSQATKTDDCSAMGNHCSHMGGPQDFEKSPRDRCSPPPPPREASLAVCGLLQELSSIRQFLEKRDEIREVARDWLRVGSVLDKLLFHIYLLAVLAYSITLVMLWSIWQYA
# Type: functional

CCOC(=O)c1ccc(C#Cc2ccc3c(c2)C(C)(C)CCS3)nc1 [TAZAROTENE] ... > 30 µM
O=C1OC(OC(=O)c2cccnc2Nc2cccc(C(F)(F)F)c2)c2ccccc21 (centres undefined) [TALNIFLUMATE] ... > 30 µM
COc1cc(N)c(Cl)cc1C(=O)NC1CCN(CCCOc2ccc(F)cc2)CC1OC (centres undefined) [CISAPRIDE] ... > 30 µM

Q) What value of measured AC50 is listed for COc1ccc([C@@H]2CC(=O)c3c(O)cc(O)cc3O2)cc1O [HESPERETIN] ?
A) > 30 µM

Q) What value of measured AC50 is listed for CC(C)[C@@H](C)/C=C/[C@@H](C)[C@H]1CC[C@H]2/C(=C/C=C3\C[C@@H](O)CC[C@@H]3C)CCC[C@]12C [DIHYDROTACHYSTEROL] ?
A) > 30 µM

Q) What value of measured AC50 is listed for CCc1cc2c(s1)-n1c(C)nnc1CN=C2c1ccccc1Cl [ETIZOLAM] ?
A) > 30 µM

Q) What value of measured AC50 is listed for CNC[C@H](O)c1ccc(O)c(O)c1 [EPINEPHRINE] ?
A) > 30 µM

Q) What value of measured AC50 is listed for CCC1(CCC(C)C)C(=O)NC(=O)NC1=O [AMOBARBITAL] ?
A) > 30 µM

Q) What value of measured AC50 is listed for CC(C(=O)O)c1ccc2c(c1)CC(=O)c1ccccc1S2 (centres undefined) [ZALTOPROFEN] ?
A) > 30 µM

###

# target-system: Prostaglandin G/H synthase 1 (Homo sapiens, UniProt P23219); note: assay procedure not described here
# Sequence (P23219 whole entry): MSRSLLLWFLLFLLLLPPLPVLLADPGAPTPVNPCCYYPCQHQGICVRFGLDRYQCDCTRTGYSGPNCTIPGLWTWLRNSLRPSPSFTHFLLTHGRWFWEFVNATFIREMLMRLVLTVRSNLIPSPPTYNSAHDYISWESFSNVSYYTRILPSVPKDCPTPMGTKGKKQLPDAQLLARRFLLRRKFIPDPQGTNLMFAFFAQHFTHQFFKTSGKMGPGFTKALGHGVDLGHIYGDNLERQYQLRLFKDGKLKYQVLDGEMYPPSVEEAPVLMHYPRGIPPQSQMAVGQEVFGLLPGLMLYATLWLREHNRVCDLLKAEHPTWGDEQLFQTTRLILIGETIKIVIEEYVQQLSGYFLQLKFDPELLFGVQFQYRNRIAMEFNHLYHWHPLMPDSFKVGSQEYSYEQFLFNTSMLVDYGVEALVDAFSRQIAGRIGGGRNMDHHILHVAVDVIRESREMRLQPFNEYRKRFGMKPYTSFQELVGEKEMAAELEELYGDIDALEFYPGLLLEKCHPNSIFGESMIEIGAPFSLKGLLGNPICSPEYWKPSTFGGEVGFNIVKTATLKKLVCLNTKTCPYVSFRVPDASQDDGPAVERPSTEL
# Format: functional
readout-type: AC50

Reference set, count: 3
O=C(/C=C/c1cccc(S(=O)(=O)Nc2ccccc2)c1)NO [BELINOSTAT] ... 6.9 µM
O=C(O)CN(CCN(CC(=O)O)CC(=O)O)CCN(CC(=O)O)CC(=O)O [PENTETIC ACID] ... > 30 µM
C=CC(=O)Nc1cccc(Oc2nc(Nc3ccc(N4CCN(C)CC4)cc3)nc3ccsc23)c1 [OLMUTINIB] ... > 30 µM

Proceed to the following item.
Q) What value of measured AC50 is listed for COC(=O)C[C@](O)(CCCC(C)(C)O)C(=O)O[C@@H]1C(OC)=C[C@]23CCCN2CCc2cc4c(cc2[C@H]13)OCO4 [OMACETAXINE MEPESUCCINATE] ?
A) > 30 µM

###

Where a SMILES comes first, the peptide text is derived from it. [ ]: non-standard residue; d: D form. pGlu = O=C1CC[C@@H](C(=O)O)N1; Thz = O=C(O)[C@@H]1CSCN1
// endpoint AC50 / system Adenosine receptor A3 (Homo sapiens, UniProt P0DMS8); note: assay procedure not described here

Q) Hello, I am looking for reported AC50 with Adenosine receptor A3 (Homo sapiens, UniProt P0DMS8) for O=C1CC[C@@H](C(=O)N2CSC[C@H]2C(=O)O)N1 [PIDOTIMOD] ([pGlu]-[Thz]-OH) . Could you help?
A) > 30 µM

Q) Hello, I am looking for reported AC50 with Adenosine receptor A3 (Homo sapiens, UniProt P0DMS8) for CNC[C@H](O)c1ccc(O)c(O)c1 [EPINEPHRINE] . Could you help?
A) 18 µM

Q) Hello, I am looking for reported AC50 with Adenosine receptor A3 (Homo sapiens, UniProt P0DMS8) for Cc1nnc(SCC2=C(C(=O)O)N3C(=O)[C@@H](NC(=O)Cn4cnnn4)[C@H]3SC2)s1 . Could you help?
A) > 300 µM

Q) Hello, I am looking for reported AC50 with Adenosine receptor A3 (Homo sapiens, UniProt P0DMS8) for Oc1cc(O)c(Cl)cn1 . Could you help?
A) > 30 µM

Q) Hello, I am looking for reported AC50 with Adenosine receptor A3 (Homo sapiens, UniProt P0DMS8) for CCOC(=O)c1ncn2c1CN(C)C(=O)c1cc(F)ccc1-2 . Could you help?
A) > 30 µM

Q) Hello, I am looking for reported AC50 with Adenosine receptor A3 (Homo sapiens, UniProt P0DMS8) for CC1=C(/C=C/C(C)=C/C=C/C(C)=C/CO)C(C)(C)CCC1 . Could you help?
A) > 10 µM

Q) Hello, I am looking for reported AC50 with Adenosine receptor A3 (Homo sapiens, UniProt P0DMS8) for CN(CCOc1ccc(CC2SC(=O)NC2=O)cc1)c1ccccn1 (stereo not given) . Could you help?
A) > 30 µM
